Below: a set of entries, each annotated with reported Fold IC50 pH 7.4 (Variant v Par0067).
Biological target: T1, recombinant biotinylated human PAR2 extracellular domain (residues 1-75), N-terminal AviTag, C-terminal Flag … (human, UniProt P55085 26-75, biotin on the AviTag (enzymatic biotinylation))
T1 construct: also called Bio-human-PAR2 ECD; human PAR2 ECD; not shown: N-terminal AviTag (Avidity LLC); C-terminal Flag and poly Histidine tags
T1 sequence (P55085 26-75): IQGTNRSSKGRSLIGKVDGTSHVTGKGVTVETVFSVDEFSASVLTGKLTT
Experiment: HTRF competition with Par0067 IgG, scFv
Please respond with the number in fold and leave the unit unwritten.

Binder	Fold IC50 pH 7.4 (Variant v Par0067) (fold)
PaB670098 scFv (scFv, V domains shown, purified scFv; also called ZZ1ODT-G01) VH: EVQLLESGGGLVQPGGSLRLSCAASGFTFSSYAMNWVRQAPGKGLEWVSTISHSGHLHHYADSHKHRFTISRDNSKNTLYLQMNSLRAEDTAVYYCARINNDPMDVWGQGTLVTVSS VL: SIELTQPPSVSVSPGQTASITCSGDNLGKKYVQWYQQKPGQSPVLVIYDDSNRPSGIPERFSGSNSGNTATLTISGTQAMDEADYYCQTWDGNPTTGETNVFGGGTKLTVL	20
PaB670076 scFv (scFv, V domains shown, purified scFv; also called ZZ1NHH-F09) VH: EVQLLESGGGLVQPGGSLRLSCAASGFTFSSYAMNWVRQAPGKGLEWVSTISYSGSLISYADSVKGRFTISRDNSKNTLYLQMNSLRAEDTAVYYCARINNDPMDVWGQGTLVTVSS VL: SIELTQPPSVSVSPGQTASITCSGDNLGKKYVQWYQQKPGQSPVLVIYDDSNRPSGIPERFSGSNSGNTATLTISGTQAMDEADYYCHTWDHHHTTGEHNVFGGGTKLTVL	14
PaB670101 scFv (scFv, V domains shown, purified scFv; also called ZZ1ODO-H01) VH: EVQLLESGGGLVQPGGSLRLSCAASGFTFSSYAMNWVRQAPGKGLEWVSTISYSGSLISYADSVKGRFTISRDNSKNTLYLQMNSLRAEDTAVYYCARIHHHPHDHWGQGTLVTVSS VL: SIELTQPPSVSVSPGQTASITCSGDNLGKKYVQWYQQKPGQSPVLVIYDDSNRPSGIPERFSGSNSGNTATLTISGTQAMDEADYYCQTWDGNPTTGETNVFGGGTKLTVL	44.5
PaB670102 scFv (scFv, V domains shown, purified scFv; also called ZZ1PXS-F08) VH: EVQLLESGGGLVQPGGSLRLSCAASGFTFSSYAMNWVRQAPGKGLEWVSTISYSGSLISYADSVKGRFTISRDNSKNTLYLQMNSLRAEDTAVYYCARINHDPMDHWGQGTLVTVSS VL: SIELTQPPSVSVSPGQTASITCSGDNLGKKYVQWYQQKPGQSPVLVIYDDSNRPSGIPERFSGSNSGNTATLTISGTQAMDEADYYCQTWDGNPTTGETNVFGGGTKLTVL	1.6

// moving on: another record for Fold IC50 pH 7.4 (Variant v Par0067)
Sample PaB670103 scFv (scFv, V domains shown, purified scFv; also called ZZ1RCX-C09) VH: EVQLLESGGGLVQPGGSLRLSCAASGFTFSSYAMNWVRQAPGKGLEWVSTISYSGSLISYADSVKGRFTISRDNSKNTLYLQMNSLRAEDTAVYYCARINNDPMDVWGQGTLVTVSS VL: SIELTQPPSVSVSPGQTASITCSGDNLGKKYVQWYQQKPGQSPVLVIYDDSNRPSGIPERFSGSNSGNTATLTISGTQAMDEADYYCHTWDGHHTTGETNHFGGGTKLTVL — what was its Fold IC50 pH 7.4 (Variant v Par0067)?
8.5
